Below: a set of entries, each annotated with reported molar heat capacity at constant pressure.
Test: molar heat capacity at constant pressure
Details: 322.15 K; 101.33 kPa; Crystal; Small sample (50 mg) DSC

{"columns": ["MOLECULE", "UNIT SPEC", "molar heat capacity at constant pressure"],
 "data": [
  ["OC[C@@H](O)C(O)[C@H](O)CO", "J/K/mol", 221.63],
  ["OC[C@@H](O)[C@@H](O)[C@H](O)[C@H](O)CO", "J/K/mol", 251.62],
  ["OC[C@@H](O)[C@@H](O)CO", "J/K/mol", 179.7],
  ["OC[C@H](O)C(O)[C@@H](O)CO [L-(-)-arabitol]", "J/K/mol", 229.22],
  ["O[C@H]1[C@H](O)[C@@H](O)[C@H](O)[C@@H](O)[C@H]1O [cis-1,2,3,5-trans-4,6-cyclohexanehexol]", "J/K/mol", 239.43],
  ["OC[C@@H](O)[C@H](O)[C@@H](O)CO", "J/K/mol", 229.81]
]}

----------
Settings: 170 K; 101.33 kPa; Crystal; relaxation calorimetry
Field 'label' (enum: 1 / -1). Set to 1 when molar entropy is strictly under 100 J/K/mol; else -1.

{"columns": ["MOLECULE", "CLASS NAME"],
 "data": [
  ["OC[C@@H](O)[C@@H](O)CO", 1],
  ["OC[C@@H](O)C(O)[C@H](O)CO", -1],
  ["O[C@H]1[C@H](O)[C@@H](O)[C@H](O)[C@@H](O)[C@H]1O [cis-1,2,3,5-trans-4,6-cyclohexanehexol]", -1],
  ["OC[C@@H](O)[C@H](O)[C@@H](O)CO", -1],
  ["OC[C@H](O)C(O)[C@@H](O)CO [L-(-)-arabitol]", -1],
  ["OC[C@@H](O)[C@@H](O)[C@H](O)[C@H](O)CO", -1]
]}

----------
Assay: molar heat capacity at constant pressure
Details: 55 K; 101.33 kPa; Crystal; relaxation calorimetry
Numbers after ± are expanded uncertainties.

{"columns": ["COMPOUND", "molar heat capacity at constant pressure"],
 "data": [
  ["OC[C@@H](O)C(O)[C@H](O)CO", "40.76 ± 2.5 J/K/mol"],
  ["O[C@H]1[C@H](O)[C@@H](O)[C@H](O)[C@@H](O)[C@H]1O [cis-1,2,3,5-trans-4,6-cyclohexanehexol]", "35.27 ± 2.2 J/K/mol"],
  ["OC[C@@H](O)[C@@H](O)[C@H](O)[C@H](O)CO", "46.48 ± 2.8 J/K/mol"],
  ["OC[C@@H](O)[C@@H](O)CO", "34.26 ± 2.1 J/K/mol"],
  ["OC[C@H](O)C(O)[C@@H](O)CO [L-(-)-arabitol]", "41.06 ± 2.5 J/K/mol"],
  ["OC[C@@H](O)[C@H](O)[C@@H](O)CO", "38.17 ± 2.3 J/K/mol"]
]}

----------
Conditions: 360 K; 101.33 kPa; Crystal; Small sample (50 mg) DSC

{"columns": ["MOLECULE", "molar entropy / J/K/mol"],
 "data": [
  ["O[C@H]1[C@H](O)[C@@H](O)[C@H](O)[C@@H](O)[C@H]1O [cis-1,2,3,5-trans-4,6-cyclohexanehexol]", 244.15],
  ["OC[C@@H](O)[C@@H](O)CO [meso-1,2,3,4-butanetetrol]", 199.9],
  ["OC[C@@H](O)C(O)[C@H](O)CO [D-arabitol]", 243.37],
  ["OC[C@@H](O)[C@@H](O)[C@H](O)[C@H](O)CO [D-mannitol]", 275.43],
  ["OC[C@@H](O)[C@H](O)[C@@H](O)CO [xylitol]", 243.05],
  ["OC[C@H](O)C(O)[C@@H](O)CO [L-(-)-arabitol]", 247.71]
]}

----------
Settings: 270 K; 101.33 kPa; Crystal; relaxation calorimetry
Below: a set of entries, each annotated with reported molar entropy.

{"columns": ["MOLECULE", "molar entropy [J/K/mol]"],
 "data": [
  ["OC[C@@H](O)[C@@H](O)CO", 149.82],
  ["O[C@H]1[C@H](O)[C@@H](O)[C@H](O)[C@@H](O)[C@H]1O [cis-1,2,3,5-trans-4,6-cyclohexanehexol]", 177.58],
  ["OC[C@H](O)C(O)[C@@H](O)CO [L-(-)-arabitol]", 182.43],
  ["OC[C@@H](O)[C@H](O)[C@@H](O)CO", 178.59],
  ["OC[C@@H](O)C(O)[C@H](O)CO", 180.69],
  ["OC[C@@H](O)[C@@H](O)[C@H](O)[C@H](O)CO", 205.2]
]}

----------
Assay: molar heat capacity at constant pressure
Conditions: 208.15 K; 101.33 kPa; Crystal; Small sample (50 mg) DSC
Below: a set of entries, each annotated with reported molar heat capacity at constant pressure.

{"columns": ["COMPOUND", "UNIT SPEC", "molar heat capacity at constant pressure"],
 "data": [
  ["O[C@H]1[C@H](O)[C@@H](O)[C@H](O)[C@@H](O)[C@H]1O [cis-1,2,3,5-trans-4,6-cyclohexanehexol]", "J/K/mol", 149.37],
  ["OC[C@@H](O)[C@@H](O)CO", "J/K/mol", 117.43],
  ["OC[C@@H](O)[C@@H](O)[C@H](O)[C@H](O)CO", "J/K/mol", 163.24],
  ["OC[C@H](O)C(O)[C@@H](O)CO [L-(-)-arabitol]", "J/K/mol", 145.06],
  ["OC[C@@H](O)C(O)[C@H](O)CO", "J/K/mol", 140.52],
  ["OC[C@@H](O)[C@H](O)[C@@H](O)CO", "J/K/mol", 146.4]
]}

----------
Assay: molar heat capacity at constant pressure
Details: 199.15 K; 101.33 kPa; Crystal; Small sample (50 mg) DSC
Below: a set of entries, each annotated with reported molar heat capacity at constant pressure.

{"columns": ["COMPOUND", "molar heat capacity at constant pressure, J/K/mol"],
 "data": [
  ["OC[C@@H](O)[C@@H](O)[C@H](O)[C@H](O)CO [D-mannitol]", 155.53],
  ["OC[C@@H](O)C(O)[C@H](O)CO [D-arabitol]", 133.79],
  ["OC[C@@H](O)[C@H](O)[C@@H](O)CO [xylitol]", 139.73],
  ["OC[C@H](O)C(O)[C@@H](O)CO [L-(-)-arabitol]", 138.8],
  ["O[C@H]1[C@H](O)[C@@H](O)[C@H](O)[C@@H](O)[C@H]1O [cis-1,2,3,5-trans-4,6-cyclohexanehexol]", 142.04],
  ["OC[C@@H](O)[C@@H](O)CO [meso-1,2,3,4-butanetetrol]", 112.42]
]}

----------
Below: a set of entries, each annotated with reported molar heat capacity at constant pressure.
Assay: molar heat capacity at constant pressure
Conditions: 196.15 K; 101.33 kPa; Crystal; Small sample (50 mg) DSC

{"columns": ["COMPOUND", "UNIT SPEC", "molar heat capacity at constant pressure"],
 "data": [
  ["OC[C@@H](O)[C@@H](O)[C@H](O)[C@H](O)CO [D-mannitol]", "J/K/mol", 152.24],
  ["OC[C@@H](O)C(O)[C@H](O)CO [D-arabitol]", "J/K/mol", 130.93],
  ["OC[C@H](O)C(O)[C@@H](O)CO [L-(-)-arabitol]", "J/K/mol", 136.66],
  ["O[C@H]1[C@H](O)[C@@H](O)[C@H](O)[C@@H](O)[C@H]1O [cis-1,2,3,5-trans-4,6-cyclohexanehexol]", "J/K/mol", 139.45],
  ["OC[C@@H](O)[C@@H](O)CO [meso-1,2,3,4-butanetetrol]", "J/K/mol", 110.56],
  ["OC[C@@H](O)[C@H](O)[C@@H](O)CO [xylitol]", "J/K/mol", 137.13]
]}

----------
Conditions: 1 K; 101.33 kPa; Crystal; relaxation calorimetry
QUANTITY: molar entropy (J/K/mol)

{"columns": ["COMPOUND", "RESULT NUMBER"],
 "data": [
  ["OC[C@@H](O)[C@@H](O)CO", 0.0005942],
  ["OC[C@@H](O)[C@H](O)[C@@H](O)CO", 0.0003173],
  ["OC[C@@H](O)[C@@H](O)[C@H](O)[C@H](O)CO", 0.000631],
  ["OC[C@@H](O)C(O)[C@H](O)CO", 0.0005801],
  ["OC[C@H](O)C(O)[C@@H](O)CO [L-(-)-arabitol]", 0.0005209],
  ["O[C@H]1[C@H](O)[C@@H](O)[C@H](O)[C@@H](O)[C@H]1O [cis-1,2,3,5-trans-4,6-cyclohexanehexol]", 0.001133]
]}
